Reference for the values: patent US12258425B2

Assay: in vivo
Conditions: male, Dutch Belted, rabbit, 0.1 mg/eye, Mean concentration in retina
Where a SMILES comes first, the peptide text is derived from it.
REPORTED_ENDPOINT: tissue level at time at 168 h (ng/g)

1) CC[C@H](C)[C@H](NC(=O)[C@H](Cc1ccc(O)cc1)NC(=O)[C@H](CC(N)=O)NC(=O)[C@@H](NC(=O)[C@H](C)NC(=O)CNC(=O)[C@H](CC(C)C)NC(=O)[C@H](Cc1ccc(O)cc1)NC(=O)[C@@H](NC(=O)[C@H](Cc1cnc[nH]1)NC(=O)[C@@H](N)Cc1cnc[nH]1)[C@@H](C)CC)C(C)C)C(=O)N[C@@H](Cc1ccc(O)cc1)C(N)=O [Compound 1] (H-HHIYLGAVNYIY-NH2) ... 354
